Target: T1, human A33 antigen, full length, on cells (human, UniProt Q99795 22-319)
T1 construct: CHO cells transfected with full length A33 cDNA (A33-CHO), or endogenous antigen of LS174T (colon) and AsPC-1 (pancreatic) tumour cells; The cell line is named under assay; also called A33-CHO; A33 antigen on LS174T cells
T1 sequence: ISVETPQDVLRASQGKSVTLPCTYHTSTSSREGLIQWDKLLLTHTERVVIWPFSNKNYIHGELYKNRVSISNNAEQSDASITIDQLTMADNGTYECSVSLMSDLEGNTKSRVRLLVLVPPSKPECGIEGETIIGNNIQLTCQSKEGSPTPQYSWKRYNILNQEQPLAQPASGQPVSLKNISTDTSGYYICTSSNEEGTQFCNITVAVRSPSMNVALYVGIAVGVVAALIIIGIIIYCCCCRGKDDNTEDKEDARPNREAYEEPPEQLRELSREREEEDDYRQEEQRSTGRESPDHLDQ
Assay: flow cytometry on LS174T cells, 0.37ug/mL
Hi! Could you tag entries with MFI below 900 MFI as rule met, and those at or above as rule not met? Much appreciated.

| BINDER | LABEL CLASS |
| --- | --- |
| humanized 31.1 antibody #5 (abb31.1-HC + cdr31.1-LC) (antibody, human IgG1, kappa, V domains shown, Full heavy and light chains; supernatant in the first screen, Protein A/G purified in the second round; also called Sample ID 5; abb-HC + cdr-LC) VH: QIQLVQSGAEVKKPGASVKVSCKASGYTFTNYGMNWVRQAPGKGLEWMGWINTYTGEPTYAQKFQGRVTFTLDTSISTAYMELSRLRSDDTAVYFCARAYYGKYFDYWGQGTTVTVSS VL: SIVMTQSPSSLSASVGDRVTITCKASQSVSNDVAWYQQKPGQSPKLLIYYASNRYTGVPDRFSGSGYGTDFTLTISSLQPEDFAVYFCQQDYSSPLTFGAGTKLEIKR | rule met |
| humanized 31.1 antibody #11 (sdr31.1-HC + sdr31.1-LC) (antibody, human IgG1, kappa, V domains shown, Full heavy and light chains; supernatant in the first screen, Protein A/G purified in the third round; used as negative control; also called Sample ID 11; sdr-HC + sdr-LC) VH: QIQLVQSGAEVKKPGASVKVSCKASGYTFTNYGMNWVRQAPGKGLEWMGWINPYTGEPTYAQKFQGRVTFTLDTSISTAYMELSRLRSDDTAVYFCARAYYGKYFDYWGQGTTVTVSS VL: SIQMTQSPSSLSASVGDRVTITCRASQSISNDLAWYQQKPGQSPKLLIYYASNRYTGVPDRFSGSGYGTDFTLTISSLQPEDFAVYFCQQDYSSPLTFGAGTKLEIKR | rule met |
| humanized 31.1 antibody #8 (abb-HC + ven-LC) (antibody, human IgG1, kappa, V domains shown, Full heavy and light chains; transient Expi293 expression, tested as culture supernatant; also called Sample ID 8; abb31.1-HC + ven31.1-LC) VH: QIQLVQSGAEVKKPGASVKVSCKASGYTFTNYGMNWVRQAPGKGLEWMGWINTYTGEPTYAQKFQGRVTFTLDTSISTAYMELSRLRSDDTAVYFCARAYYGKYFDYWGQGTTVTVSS VL: SIVMTQSPSSLSVSVGDRVTITCKASQSVSNDVAWYQQKPGQSPKLLIYYASNRYTGVPDRFSGSGYGTDFTFTISSVQPEDLAVYFCQQDYSSPLTFGAGTKLELKR | rule not met |
| humanized 31.1 antibody #13 (ven-HC + cdr-LC) (antibody, human IgG1, kappa, V domains shown, Full heavy and light chains; transient Expi293 expression, tested as culture supernatant; also called Sample ID 13; ven31.1-HC + cdr31.1-LC) VH: QIQLVQSGPEVKKPGASVKISCKASGYTFTNYGMNWVKQAPGQGLKWMGWINTYTGEPTYADDFKGRFAFTLDTSISTAYLEISRLRSDDTAVYFCARAYYGKYFDYWGQGTTLTVSS VL: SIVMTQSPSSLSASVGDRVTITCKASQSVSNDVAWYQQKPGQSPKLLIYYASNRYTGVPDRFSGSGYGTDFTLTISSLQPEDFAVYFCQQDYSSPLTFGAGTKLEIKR | rule not met |
| humanized 31.1 antibody #16 (ven31.1-HC + ven31.1-LC) (antibody, human IgG1, kappa, V domains shown, Full heavy and light chains; supernatant in the first screen, Protein A/G purified in the third round; also called Sample ID 16; ven-HC + ven-LC) VH: QIQLVQSGPEVKKPGASVKISCKASGYTFTNYGMNWVKQAPGQGLKWMGWINTYTGEPTYADDFKGRFAFTLDTSISTAYLEISRLRSDDTAVYFCARAYYGKYFDYWGQGTTLTVSS VL: SIVMTQSPSSLSVSVGDRVTITCKASQSVSNDVAWYQQKPGQSPKLLIYYASNRYTGVPDRFSGSGYGTDFTFTISSVQPEDLAVYFCQQDYSSPLTFGAGTKLELKR | rule not met |
